Values compiled from ChEMBL document CHEMBL1129787.

- Target system: Substance-P receptor (Homo sapiens)
- Measurement notes: Inhibition of Tachykinin receptor 1
Non-standard residues stand in square brackets, D forms with d. Residues, ends and D or L forms follow the SMILES beside them. Phe(4-F) = N[C@@H](Cc1ccc(F)cc1)C(=O)O; 1Nal = N[C@@H](Cc1cccc2ccccc12)C(=O)O
Measured endpoint: IC50 (nM)

As a guide, the following entries are already answered.
[[record]]
molecule = "C[C@@H](O)[C@@H]1NC(=O)[C@H](Cc2ccccc2)NC(=O)[C@@H](Cc2c[nH]c3ccccc23)NC(=O)[C@H](Cc2cccc3ccccc23)NC(=O)[C@@H]2CCCN2C(=O)[C@H](Cc2ccccc2)NC1=O (cyclo([1Nal][dW]FTFP))"
target_system = "Substance-P receptor (Homo sapiens)"
units = "nM"
reading = 15

[[record]]
molecule = "C[C@@H](O)[C@@H]1NC(=O)[C@H](Cc2ccc(F)cc2)NC(=O)[C@@H](Cc2c[nH]c3ccccc23)NC(=O)[C@H](Cc2ccccc2)NC(=O)[C@@H]2CCCN2C(=O)[C@H](Cc2ccccc2)NC1=O (cyclo(FPF[dW][Phe(4-F)]T))"
target_system = "Substance-P receptor (Homo sapiens)"
units = "nM"
reading = 28

[[record]]
molecule = "C[C@H](O)[C@@H]1NC(=O)[C@H](Cc2ccccc2)NC(=O)[C@@H](Cc2c[nH]c3ccccc23)NC(=O)[C@H](Cc2ccccc2)NC(=O)[C@@H]2CCCN2C(=O)[C@H](Cc2ccccc2)NC1=O"
target_system = "Substance-P receptor (Homo sapiens)"
units = "nM"
reading = 95


(P) C[C@@H]1NC(=O)[C@@H]2CCCN2C(=O)[C@H](Cc2ccccc2)NC(=O)[C@H]([C@@H](C)O)NC(=O)[C@H](Cc2ccccc2)NC(=O)[C@@H](Cc2c[nH]c3ccccc23)NC1=O
(Q) C[C@@H](O)[C@@H]1NC(=O)[C@H](Cc2ccc(F)cc2)NC(=O)[C@@H](Cc2c[nH]c3ccccc23)NC(=O)[C@H](Cc2cccc3ccccc23)NC(=O)[C@@H]2CCCN2C(=O)[C@H](Cc2ccccc2)NC1=O (cyclo([1Nal][dW][Phe(4-F)]TFP))
(R) C[C@@H](O)[C@@H]1NC(=O)[C@H](Cc2ccccc2)NC(=O)[C@@H](Cc2c[nH]c3ccccc23)NC(=O)[C@H](CC2CCCCC2)NC(=O)[C@@H]2CCCN2C(=O)[C@H](Cc2ccccc2)NC1=O
(S) CC(C)C[C@@H]1NC(=O)[C@@H](Cc2c[nH]c3ccccc23)NC(=O)[C@H](Cc2ccccc2)NC(=O)[C@@H]2CCCN2C(=O)[C@H](Cc2ccccc2)NC(=O)[C@H]([C@@H](C)O)NC1=O
(T) C[C@@H](O)[C@@H]1NC(=O)[C@H](Cc2ccccc2)NC(=O)[C@@H](Cc2c[nH]c3ccccc23)NC(=O)[C@H](CC(=O)O)NC(=O)[C@@H]2CCCN2C(=O)[C@H](Cc2ccccc2)NC1=O (cyclo(D[dW]FTFP))
Enquiry: Sort these molecules on IC50 so the largest reading comes first. API: response body holds the labels in the requested order.
Return: S, T, P, R, Q

(I) C[C@H](O)[C@@H]1NC(=O)[C@H](Cc2ccccc2)NC(=O)[C@@H](Cc2c[nH]c3ccccc23)NC(=O)[C@@H](Cc2ccccc2)NC(=O)[C@@H]2CCCN2C(=O)[C@H](Cc2ccccc2)NC1=O
(II) C[C@@H](O)[C@@H]1NC(=O)[C@H](Cc2ccccc2)NC(=O)[C@@H](Cc2c[nH]c3ccccc23)NC(=O)[C@H](CCc2ccccc2)NC(=O)[C@@H]2CCCN2C(=O)[C@H](Cc2ccccc2)NC1=O
Enquiry: Which value of IC50 is greater, the one for I or the one for II ? Reply briefly: the label of your chosen item.
Return: I
(I: 496 nM, II: 85 nM)

----------
- Target system: Substance-P receptor (Homo sapiens)
- Measurement notes: Binding affinity towards Tachykinin receptor 1
Measured endpoint: IC50 (nM)

(I) NCCCCCOC[C@H]1O[C@@H](OCCc2c[nH]c3ccccc23)[C@H](OCc2ccccc2)C[C@@H]1OCc1ccccc1
(II) CC(=O)NCCCCCOC[C@H]1O[C@@H](OCCc2c[nH]c3ccccc23)[C@H](OCc2ccccc2)[C@@H](OCc2ccccc2)[C@@H]1OCc1ccccc1
Enquiry: # returns the entry with the larger IC50; inputs I and II Answer with the label corresponding to your selection.
Return: I

----------
- Target system: Beta-2 adrenergic receptor (Homo sapiens, UniProt P07550)
- Sequence (P07550 whole entry): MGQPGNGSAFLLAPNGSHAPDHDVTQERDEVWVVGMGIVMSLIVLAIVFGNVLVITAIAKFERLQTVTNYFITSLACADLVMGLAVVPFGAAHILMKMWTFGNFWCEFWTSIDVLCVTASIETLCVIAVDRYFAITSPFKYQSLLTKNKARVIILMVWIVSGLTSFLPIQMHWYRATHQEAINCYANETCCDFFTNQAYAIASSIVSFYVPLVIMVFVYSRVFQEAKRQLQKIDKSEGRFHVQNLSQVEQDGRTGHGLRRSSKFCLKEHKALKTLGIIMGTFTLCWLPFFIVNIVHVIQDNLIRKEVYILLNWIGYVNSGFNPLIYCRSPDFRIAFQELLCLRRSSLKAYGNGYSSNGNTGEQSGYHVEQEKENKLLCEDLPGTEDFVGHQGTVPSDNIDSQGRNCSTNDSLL
Measured endpoint: IC50 (µM)
Write it as a number; the unit µM goes unstated.

Enquiry: Item `NCCCCCOC[C@H]1O[C@@H](OCCc2c[nH]c3ccccc23)[C@H](OCc2ccccc2)[C@@H](OCc2ccccc2)[C@@H]1OCc1ccccc1` has what recorded IC50?
Return: 3

----------
- Target system: Substance-P receptor (Homo sapiens, UniProt P25103)
- Sequence (P25103 whole entry): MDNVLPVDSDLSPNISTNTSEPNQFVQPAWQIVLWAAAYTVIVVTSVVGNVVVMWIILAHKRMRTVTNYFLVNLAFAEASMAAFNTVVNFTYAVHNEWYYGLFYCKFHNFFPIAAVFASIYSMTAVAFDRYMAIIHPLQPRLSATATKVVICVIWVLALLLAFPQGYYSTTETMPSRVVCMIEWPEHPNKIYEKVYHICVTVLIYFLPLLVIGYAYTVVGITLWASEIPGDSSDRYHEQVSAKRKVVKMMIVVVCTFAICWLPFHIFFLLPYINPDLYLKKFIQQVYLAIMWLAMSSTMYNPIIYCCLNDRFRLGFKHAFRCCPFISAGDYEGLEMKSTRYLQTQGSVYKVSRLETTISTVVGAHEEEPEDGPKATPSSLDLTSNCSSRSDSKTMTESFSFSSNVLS
- Measurement notes: Inhibition of Tachykinin receptor 1
Non-standard residues stand in square brackets, D forms with d. Residues, ends and D or L forms follow the SMILES beside them.
Measured endpoint: IC50 (µM)

(A) COc1ccc(C[C@@H]2NC(=O)[C@@H](Cc3c[nH]c4ccccc34)NC(=O)[C@H](Cc3ccccc3)NC(=O)[C@@H]3CCCN3C(=O)[C@H](Cc3ccccc3)NC(=O)[C@H]([C@@H](C)O)NC2=O)cc1 (cyclo(FPF[dW]Y(Me)T))
(B) C[C@@H]1NC(=O)[C@@H](Cc2c[nH]c3ccccc23)NC(=O)[C@H](Cc2ccccc2)NC(=O)[C@@H]2CCCN2C(=O)[C@H](Cc2ccccc2)NC(=O)[C@H]([C@@H](C)O)NC1=O
(C) C[C@@H](O)[C@@H]1NC(=O)[C@H](Cc2ccccc2)NC(=O)[C@@H](Cc2c[nH]c3ccccc23)NC(=O)[C@H](CO)NC(=O)[C@@H]2CCCN2C(=O)[C@H](Cc2ccccc2)NC1=O
Enquiry: Put the above compounds in order of rising IC50, beginning with the smallest. Form entry: ranked labels (order as requested).
Return: A, C, B
